Test system: Escherichia coli TOP10;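 further: peptides expressed intracellularly from a pBAD plasmid library in pooled LB shake-flask culture, induced with 0.3% L-arabinose, DNA abundance read by NGS, three biological replicates, DESeq2 with apeglm shrinkage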
PROTOCOL NOTES: shrunken log2 fold change of peptide-encoding DNA abundance (4.5 h post-induction vs induction); higher = less antimicrobial activity (less host growth inhibition)
APPLIED CONDITIONS: time post-induction: 4.5 h; library: site-saturation at positions 5, 18, 19, 20
shrunken log2 fold change values by entry

Here is how some sequences turned out for shrunken log2 fold change.
POLYMER SEQUENCE: RRIRYRPPRLPRPRPRPMVFPRP
shrunken log2 fold change: -0.00776
--
POLYMER SEQUENCE: RRIRMRPPRLPRPRPRPMCNPRP
shrunken log2 fold change: -0.00494
--
POLYMER SEQUENCE: RRIRFRPPRLPRPRPRPTSRPRP
shrunken log2 fold change: -0.291
--
POLYMER SEQUENCE: RRIRARPPRLPRPRPRPYPHPRP
shrunken log2 fold change: -0.0654

# input for lookup
Ask | # input sequence: `RRIRARPPRLPRPRPRPWEAPRP` ; wanted: its shrunken log2 fold change
Reply | 0.221
